- experimental system: Potassium channel subfamily K member 2 (Homo sapiens, UniProt O95069)
- Sequence (O95069 whole entry): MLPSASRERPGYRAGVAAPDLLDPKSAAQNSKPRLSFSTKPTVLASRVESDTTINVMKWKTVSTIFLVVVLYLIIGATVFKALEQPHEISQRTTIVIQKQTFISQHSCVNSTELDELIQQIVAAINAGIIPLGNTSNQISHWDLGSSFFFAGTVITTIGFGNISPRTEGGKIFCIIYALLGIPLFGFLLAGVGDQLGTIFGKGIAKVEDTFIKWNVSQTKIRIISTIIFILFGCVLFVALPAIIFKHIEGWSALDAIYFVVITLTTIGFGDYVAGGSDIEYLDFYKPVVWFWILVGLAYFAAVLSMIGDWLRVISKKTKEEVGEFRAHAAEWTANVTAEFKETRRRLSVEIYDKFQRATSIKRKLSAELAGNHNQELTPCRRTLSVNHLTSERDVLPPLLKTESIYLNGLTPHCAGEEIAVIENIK
- experimental details: Inhibition of human TREK1 expressed in HEK293 cells assessed as reduction in channel currents
- Type: cell-based
experimental readout: pIC50
pIC50 here is simply -log10 of the concentration when that concentration is written in mol/L.

The cases that follow already have their pIC50 on record.
# returns recorded pIC50 (system: Potassium channel subfamily K member 2 (Homo sapiens, UniProt O95069)) for COc1ccccc1OCCNCC(O)COc1cccc2[nH]c3ccccc3c12 (stereo not drawn)
5.80

Kindly state the measured pIC50 obtained for CCN(CC)CC(=O)Nc1c(C)cccc1C with Potassium channel subfamily K member 2 (Homo sapiens, UniProt O95069).
3.68

# evaluate next
Checklist item: pIC50 tested on Potassium channel subfamily K member 2 (Homo sapiens, UniProt O95069), entry CNCCC(Oc1ccc(C(F)(F)F)cc1)c1ccccc1 (stereo not drawn) , value?
4.85

Data provenance: ChEMBL document CHEMBL3817738
